Please go through the items and note down their IC50COX-1/IC50COX-2.
Biological target: COX-2 (Canis lupus familiaris, UniProt Q8SPQ9)
Construct: in vitro activity study using beagle dog whole blood was conducted; from tissue; host or cells: beagle dog whole blood, stimulated with LPS (by the same method as for human blood)
Sequence (Q8SPQ9 18-604): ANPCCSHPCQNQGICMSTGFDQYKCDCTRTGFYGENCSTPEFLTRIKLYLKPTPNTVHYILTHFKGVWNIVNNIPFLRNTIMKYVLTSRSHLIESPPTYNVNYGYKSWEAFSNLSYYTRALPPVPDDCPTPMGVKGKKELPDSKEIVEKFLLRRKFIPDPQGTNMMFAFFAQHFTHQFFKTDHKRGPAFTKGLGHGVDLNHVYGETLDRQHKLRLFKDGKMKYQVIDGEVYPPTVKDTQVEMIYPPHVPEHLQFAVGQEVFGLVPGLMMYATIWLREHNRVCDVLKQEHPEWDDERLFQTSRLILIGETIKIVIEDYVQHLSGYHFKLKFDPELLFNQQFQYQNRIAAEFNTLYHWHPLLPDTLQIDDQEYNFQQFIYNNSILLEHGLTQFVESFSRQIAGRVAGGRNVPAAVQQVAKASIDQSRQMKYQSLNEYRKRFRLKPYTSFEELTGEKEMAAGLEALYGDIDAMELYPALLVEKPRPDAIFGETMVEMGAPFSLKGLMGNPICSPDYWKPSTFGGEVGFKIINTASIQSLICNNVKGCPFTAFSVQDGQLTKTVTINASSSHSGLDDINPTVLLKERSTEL
Assay: Dog whole blood in vitro activity assay, COX-2
Format: cell-based, beagle dog
One number for each entry.

Observe how each entry below is paired with its result.
>  <molecule>
COc1ccc(-c2c(Cl)ncn2-c2ccc(S(N)(=O)=O)cc2)cc1F [Cimicoxib, reference compound]

>  <IC50COX-1/IC50COX-2>
9.5

$$$$
>  <molecule>
CS(=O)(=O)c1ccc(-n2cnc(Cl)c2-c2ccccc2)nc1

>  <IC50COX-1/IC50COX-2>
83.2

$$$$
>  <molecule>
COc1ccc(-c2c(Cl)ncn2-c2ccc(S(C)(=O)=O)nc2)cc1

>  <IC50COX-1/IC50COX-2>
239.6

$$$$
>  <molecule>
Cc1ccc(-c2c(Cl)ncn2-c2ccc(S(C)(=O)=O)cn2)cc1

>  <IC50COX-1/IC50COX-2>
18.8

$$$$

Switching to the query record.
Query: Fill blank: measured IC50COX-1/IC50COX-2 of the molecule CS(=O)(=O)c1ccc(-n2cnc(Cl)c2-c2ccc(F)cc2)nc1 is ____.
Result: 21.4

---

Biological target: cyclooxygenase-2 (COX-2 enzyme) (Homo sapiens)
Construct: from tissue; host or cells: heparinised human whole blood from healthy volunteers, stimulated with LPS
Assay: Human whole blood in vitro activity assay, COX-2 (LPS-induced PGE2 by EIA)
Format: cell-based
Details: LPS, PGE2, read-out: IC50 (μg/mL) COX-2 (converted)
Protocol: Human whole blood in vitro activity study: inhibition of activity of cyclooxygenase-1 (COX-1 enzyme) and cyclooxygenase-2 (COX-2 enzyme) in human blood. […] The activity of COX-1 enzyme was detected by determining the amount of thromboxane B2 (TXB2) synthesized by platelet using an EIA kit. […] The EIA kit of Cayman Company was used, the amounts of TXB2 and PGE2 were determined in accordance to the manufacturer's instructions, and the activities of COX-1 and COX-2 were tested respectively.
Would you mind telling me the reported IC50 of each entry?

I have 3 molecules here; please give me IC50 for each one.
1. CS(=O)(=O)c1ccc(-n2cncc2-c2ccccc2)nc1
2. CS(=O)(=O)c1ccc(-n2cnc(Cl)c2-c2ccc(Cl)cc2Cl)nc1
3. COc1ccc(-c2c(Cl)ncn2-c2ccc(S(C)(=O)=O)nc2)cc1F

Result:
1: 7.45 µM; 2: 1.74 µM; 3: 3.14 µM

Please state, for each entry, its recorded IC50.
1. COc1ccc(-c2c(Cl)ncn2-c2ccc(S(C)(=O)=O)cn2)cc1
2. Cc1ccc(-c2c(Cl)ncn2-c2ccc(S(C)(=O)=O)cn2)cc1
3. CS(=O)(=O)c1ccc(-n2cnc(Cl)c2-c2cccnc2)cn1
4. CS(=O)(=O)c1ccc(-n2cnc(Cl)c2-c2ccccc2)nc1

Result:
["0.137 µM", "0.259 µM", "118 µM", "0.899 µM"]

Take each entry in turn and give its IC50.
1. CS(=O)(=O)c1ccc(-n2cnc(Cl)c2-c2cccnc2)nc1
2. CS(=O)(=O)c1ccc(-n2cncc2-c2ccccc2)cn1

Result:
1. 2.84 µM
2. > 1670 µM

---

Test: Pharmacokinetic study, intravenous, rats
Assay type: in vivo
Details: rat, in vivo; male SD rats, IV 2 mg/kg
Please respond with reported clearance for every item in the list.
Give bare numbers, in mL/min/kg.

>  <molecule>
CS(=O)(=O)c1ccc(-n2cnc(Cl)c2-c2ccccc2)nc1 [Compound 1]

>  <recorded metric>
clearance

>  <reported measurement>
2.83

$$$$

Please examine the following record next.
Query: # clearance lookup, item COc1ccc(-c2c(Cl)ncn2-c2ccc(S(N)(=O)=O)cc2)cc1F [Cimicoxib, reference compound]
Result: 2.99

---

Assignment: determine reported IC50COX-1/IC50COX-2 for the given compounds.
Biological target: cyclooxygenase-2 (COX-2 enzyme) (Homo sapiens, UniProt P35354)
Construct: from tissue; host or cells: heparinised human whole blood from healthy volunteers, stimulated with LPS
Sequence (P35354 18-604): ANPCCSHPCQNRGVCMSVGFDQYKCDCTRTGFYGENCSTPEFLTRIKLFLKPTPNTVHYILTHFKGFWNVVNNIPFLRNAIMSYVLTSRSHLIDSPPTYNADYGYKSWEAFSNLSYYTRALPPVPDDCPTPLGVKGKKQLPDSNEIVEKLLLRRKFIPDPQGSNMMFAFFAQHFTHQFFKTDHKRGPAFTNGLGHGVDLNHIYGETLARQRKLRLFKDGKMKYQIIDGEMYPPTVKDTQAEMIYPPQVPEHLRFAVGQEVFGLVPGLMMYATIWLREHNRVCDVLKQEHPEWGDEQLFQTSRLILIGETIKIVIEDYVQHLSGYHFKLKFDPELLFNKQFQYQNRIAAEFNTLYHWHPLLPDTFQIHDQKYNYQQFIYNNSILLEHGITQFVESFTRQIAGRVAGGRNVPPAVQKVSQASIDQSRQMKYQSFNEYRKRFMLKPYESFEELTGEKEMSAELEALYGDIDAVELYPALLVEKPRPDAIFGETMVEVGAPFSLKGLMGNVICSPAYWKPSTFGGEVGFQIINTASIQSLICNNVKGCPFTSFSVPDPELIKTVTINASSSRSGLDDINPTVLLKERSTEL
Assay: Human whole blood in vitro activity assay, COX-2 (LPS-induced PGE2 by EIA)
Assay type: cell-based
One number for each entry.

Check out these entries, answers already filled in.
>  <compound>
Cc1ccc(-c2c(Cl)ncn2-c2ccc(S(C)(=O)=O)cn2)cc1 [Compound 3]

>  <IC50COX-1/IC50COX-2>
76.2

$$$$
>  <compound>
COc1ccc(-c2c(Cl)ncn2-c2ccc(S(N)(=O)=O)cc2)cc1F [Cimicoxib, reference compound]

>  <IC50COX-1/IC50COX-2>
8.8

$$$$
>  <compound>
CS(=O)(=O)c1ccc(-n2cnc(Cl)c2-c2ccc(F)cc2)nc1 [Compound 2]

>  <IC50COX-1/IC50COX-2>
21.8

$$$$
>  <compound>
CS(=O)(=O)c1ccc(-n2cnc(Cl)c2-c2ccc(F)cc2)cn1 [Compound 12]

>  <IC50COX-1/IC50COX-2>
135.9

$$$$
>  <compound>
COc1ccc(-c2c(Cl)ncn2-c2ccc(S(C)(=O)=O)nc2)cc1F [Compound 10]

>  <IC50COX-1/IC50COX-2>
58.8

$$$$

# batch size: 3; output IC50COX-1/IC50COX-2 per entry
1. COc1ccc(-c2c(Cl)ncn2-c2ccc(S(C)(=O)=O)cn2)cc1 [Compound 5]
2. COc1ccc(-c2c(Cl)ncn2-c2ccc(S(C)(=O)=O)cn2)cc1F [Compound 6]
3. CS(=O)(=O)c1ccc(-n2cnc(Cl)c2-c2cccnc2)nc1 [Compound 7]

Result:
1: 4.6; 2: 25.8; 3: 19.0
